- Tested on: RAW-Dual (murine macrophage reporter line)
- experimental-details: NF-kB reporter (SEAP) activity fold change vs agonist alone; higher = enhanced NF-kB activity
- cond: modulator concentration 10 µM; agonist: LPS 0.1 ug/mL
measured-metric: NF-kB reporter
# answer = number (no unit)

{"columns": ["molecule", "NF-kB reporter"],
 "data": [
  ["CCN1C(=O)C(=Cc2c[nH]c3ccccc23)SC1=S", 0.994]
]}

# molecule COc1ccc(CNC(=O)NCC#CCOc2cccc(C(F)(F)F)c2)cc1OC ; its NF-kB reporter = 1.07

Short answer for CCOC(=O)C1=C(C)NC(C)=C(C(=O)OC)C1c1ccccc1 (centres undefined) : NF-kB reporter was 0.831

Form field NF-kB reporter, entry CC1CC(=CC=CN(C)C)C(=O)C(=CC=CN(C)C)C1 (centres undefined) : 1

Measured NF-kB reporter, CC1(C)CC(=O)C2=C(C1)OC(N)=C(C#N)C21C(=O)Nc2ccc(Br)cc21 (centres undefined) : 1.05

Record NC(=NOC(=O)c1ccc2nsnc2c1)c1ncon1 . Reported NF-kB reporter: 0.965

The reported NF-kB reporter of the molecule Cc1ccc(C(=O)N2N=C(c3ccc(Cl)cc3)CC2(O)C(F)(F)F)o1 (centres undefined) was 0.82

----------
- Test system: RAW-Dual (murine macrophage reporter line)
- experimental-details: NF-kB reporter (SEAP) activity fold change vs agonist alone; higher = enhanced NF-kB activity
- cond: modulator concentration 10 µM; agonist: LPS 0.1 ug/mL
Label Not satisfied if NF-kB reporter falls below 1; label Satisfied in every other case.

{"columns": ["compound", "class"],
 "data": [
  ["CCCC(=O)OCOC(=O)C1=C(C)NC(C)=C(C(=O)OC)C1c1cccc(Cl)c1Cl (stereo not given)", "Not satisfied"],
  ["O=C(NN=Cc1ccccc1C(F)(F)F)c1ccc(=O)[nH]n1", "Not satisfied"],
  ["C[C@H](Oc1cc(-c2cnn(C3CCNCC3)c2)cnc1N)c1c(Cl)ccc(F)c1Cl", "Not satisfied"],
  ["CC1=C(C)CC2C(=O)N(c3ccccc3C)C(=O)C2C1 (stereo not given)", "Not satisfied"],
  ["C=CCc1ccccc1OCC(O)CNC(C)C.Cl (stereo not given)", "Not satisfied"]
]}

*Q* Decide: is the reported value of NF-kB reporter for O=S(=O)(Nc1cccc2cccnc12)c1ccccc1 equal to or greater than 1?
*A* Not satisfied

*Q* Check this compound for NF-kB reporter at or above 1: NC(=O)c1cc(NC(=O)c2ccc(Cl)c(Cl)c2)cc(C(N)=O)c1
*A* Satisfied

*Q* Reported NF-kB reporter reaches at least 1 for FC(F)(F)c1ccnc(NC2CCN(c3ncnc4c3CCCC4)CC2)n1 ?
*A* Satisfied

*Q* Entry CC12CCC(CC1)C(C)(C)O2 : is its NF-kB reporter no less than 1?
*A* Satisfied

*Q* I'd appreciate it if you could say whether Cl.O=C1c2cccc3c2C(CCC3)CN1C1CN2CCC1CC2 (stereo not given) has NF-kB reporter at least equal to 1.
*A* Not satisfied

*Q* Record Cc1ncc(CC(=O)N2CCC(c3ccccc3F)S(=O)(=O)CC2)s1 (stereo not given) ; criterion: NF-kB reporter no lower than 1. Met?
*A* Not satisfied

*Q* Say whether Cc1ccc(CNC(=O)C(=O)NC2CCCCC2)cc1 shows NF-kB reporter of 1 or more.
*A* Not satisfied

*Q* Does the reported NF-kB reporter for c1ccc(OCc2nnc(-c3ccccc3)o2)cc1 fall at or above the 1 mark?
*A* Satisfied

*Q* NF-kB reporter >= 1 for O=C(Nc1ccc(NS(=O)(=O)c2ccc(Cl)cc2)cc1)c1ccccc1 ?
*A* Satisfied

*Q* Determine whether this compound has NF-kB reporter no lower than 1: Cl.Nc1c(Br)cc(Br)cc1CNC1CCC(O)CC1 (stereo not given)
*A* Not satisfied

*Q* Quick check, NF-kB reporter >= 1? CC(=O)c1cc(Cl)ccc1OC(=O)c1ccccc1Cl
*A* Not satisfied

*Q* # check: NF-kB reporter of N#Cc1cc(-c2n[nH]c(-c3ccncc3)n2)ccn1 is greater than or equal to 1
*A* Satisfied

*Q* Does the compound CC1=C(C(=O)OCCN(Cc2ccccc2)c2ccccc2)C(c2cccc([N+](=O)[O-])c2)C(P2(=O)OCC(C)(C)CO2)=C(C)N1 (stereo not given) have recorded NF-kB reporter that is 1 or more?
*A* Not satisfied

----------
- Tested on: RAW-Dual (murine macrophage reporter line)
- experimental-details: NF-kB reporter (SEAP) activity fold change vs agonist alone; higher = enhanced NF-kB activity
- cond: modulator concentration 10 µM; agonist: LPS 0.1 ug/mL
The entries below are paired with their reported NF-kB reporter.

# count of solved cases: 4
{"columns": ["molecule", "reported-value"],
 "data": [
  ["CCCOc1ccc(C=C2SC(N3CCN(c4ccccc4C)CC3)=NC2=O)cc1", 0.989],
  ["COc1ccc(C(C)NC(=O)c2[nH]nnc2-c2ccc(F)cc2)cc1 (stereo not given)", 0.983],
  ["O=C(O)c1cc(Nc2ccnc3cc(Cl)ccc23)ccc1O", 1.02],
  ["COC1(c2ccc(Cl)cc2)OC(=O)c2ccccc21 (stereo not given)", 0.974]
]}

Let us examine a further case.
// molecule CC(C)NCC(O)COc1ccc(CCOCC2CC2)cc1 (stereo not given) , assay RAW-Dual (murine macrophage reporter line), NF-kB reporter value: 1.02

----------
Attribute: NF-kB reporter
- Test system: RAW-Dual (murine macrophage reporter line)
- experimental-details: NF-kB reporter (SEAP) activity fold change vs agonist alone; higher = enhanced NF-kB activity
- cond: modulator concentration 10 µM; agonist: MPLA […]
# print the numeric value only

Completed entries (count: 8):
{"columns": ["compound", "measured-metric", "reported-value"],
 "data": [
  ["CC(C)(CO)NC(=O)C(c1ccccc1)c1ccccc1", "NF-kB reporter", 1],
  ["CC(C)NCC(O)COc1ccc(CCOCC2CC2)cc1.Cl (configuration not stated)", "NF-kB reporter", 0.968],
  ["CCN(CC)CCOC(=O)c1ccc(N)cc1Cl.Cl", "NF-kB reporter", 1.04],
  ["C=CCNC(=O)COc1ccccc1C", "NF-kB reporter", 0.985],
  ["CN1C(=O)C(=Cc2cccc3ccccc23)SC1=S", "NF-kB reporter", 0.949],
  ["NCCCC[C@H](N[C@@H](CCc1ccccc1)C(=O)O)C(=O)N1CCC[C@H]1C(=O)O", "NF-kB reporter", 0.97],
  ["Cc1ccc(Nc2nc(N3CCOCC3)nc(N3CCN(c4ccccc4)CC3)n2)cc1", "NF-kB reporter", 1.98],
  ["O=C(CCC(=O)OCC(=O)c1cccs1)Nc1ccc(Oc2ccccc2)cc1", "NF-kB reporter", 1.04]
]}

// NF-kB reporter (RAW-Dual (murine macrophage reporter line)) for CCCC(=O)Nc1ccc(OCC(O)CNC(C)C)c(C(C)=O)c1.Cl (configuration not stated) = 0.983

The recorded NF-kB reporter with RAW-Dual (murine macrophage reporter line) for C=C1C(=O)O[C@@H]2[C@H]3O[C@]3(C)CC/C=C(\C)CC[C@@H]12 was 0.108

NF-kB reporter of CC(NC(=O)C(=O)NN=Cc1ccc(Cl)cc1Cl)c1ccccc1 (configuration not stated) , assay on RAW-Dual (murine macrophage reporter line), is 0.953

For the compound CNC(=O)[C@@H](NC(=O)[C@H](CC(C)C)[C@H](O)C(=O)NO)C(C)(C)C , the measured NF-kB reporter on RAW-Dual (murine macrophage reporter line) was 0.996

----------
- System: RAW-Dual (murine macrophage reporter line)
- experimental-details: IRF reporter (Lucia luciferase) activity fold change vs agonist alone; higher = enhanced IRF activity
- cond: modulator concentration 10 µM; agonist: 3'3'-cGAMP 10 ug/mL
Threshold rule: IRF reporter greater than or equal to 0.9 is yes; below that, no.

{"columns": ["molecule", "class"],
 "data": [
  ["CC(Oc1ccccc1)C(=O)NC1CC(C)(C)NC(C)(C)C1 (stereo unspecified)", "yes"],
  ["O=C(c1cc2nc(-c3ccccc3)cc(-c3ccccc3)n2n1)N1CCCCCC1", "yes"],
  ["Nc1cccc(O)c1", "yes"],
  ["Cc1cccc(NC(=O)Cc2c(C)nc(SCc3ccccc3F)[nH]c2=O)c1C", "yes"],
  ["CCC(=O)Nc1ccc(N2CCOCC2)c(Cl)c1", "no"],
  ["Cc1ccc2c(c1)C1(c3ccccc3)Nc3ccc(C)cc3C1(c1ccccc1)N2 (stereo unspecified)", "no"],
  ["O=C(O)c1ccc(NCn2nnc3ccccc32)cc1", "yes"],
  ["CN(C/C=C/C#CC(C)(C)C)Cc1cccc2ccccc12.Cl", "yes"]
]}

*Q* API: above_or_equal(metric=IRF reporter, cutoff=0.9) for item CC(C)(C)C1CCC(OC(=O)CCC(=O)O)CC1 (stereo unspecified)
*A* yes

*Q* Item O=C(c1cccs1)c1nc2c(n1O)CCCCC2 with IRF reporter of 0.9 or above?
*A* yes
